Assay: qHTS assay to identify small molecule agonists or antagonists of the thyroid stimulating hormone receptor (TSHR) signaling pathway - wild type cell line counter screen (AID 1259384); also: % is scaled to controls: 0 for no effect and ±100 for the full control effect
Conditions: HEK293 wild type, cAMP HTRF counter-screen, active compounds read high; series mostly up to 92.4 µM
Results filed as inconclusive are left out. Activity calls are given as the source filed them. Calls follow the shape of the full dose curve.

- CHEM_SMILES: "O=S1(=O)CC(Cl)(Cl)C(Cl)(Cl)C1"
  cAMP activity change: "inactive"
- CHEM_SMILES: "[O-][n+]1ccccc1SSc1cccc[n+]1[O-]"
  cAMP activity change: "5.78% [at 18.9 µM] (inactive)"
- CHEM_SMILES: "CN(C)c1ccc(SC#N)cc1"
  cAMP activity change: "inactive"
- CHEM_SMILES: "CCCCCCCC/C=C\\CCCCCCCCOCCO"
  cAMP activity change: "inactive"
- CHEM_SMILES: "C[C@@H]1C[C@H]2[C@@H]3CCC4=CC(=O)C=C[C@]4(C)[C@@]3(Cl)[C@@H](O)C[C@]2(C)[C@@]1(OC(=O)c1ccco1)C(=O)CCl"
  cAMP activity change: "inactive"
- CHEM_SMILES: "CCOC(=O)/C=C(C)/C=C/C=C(C)/C=C/c1c(C)cc(OC)c(C)c1C"
  cAMP activity change: "inactive"
